# target-or-test-system: HIV-1 Env of pseudovirus CNE52 (HIV-1)
# method-summary: cell-based or functional assay
Recorded neutralization IC80 by entry
readout-label: neutralization IC80

>>> experimental_value("MS-78 (antibody, V domains shown) VH: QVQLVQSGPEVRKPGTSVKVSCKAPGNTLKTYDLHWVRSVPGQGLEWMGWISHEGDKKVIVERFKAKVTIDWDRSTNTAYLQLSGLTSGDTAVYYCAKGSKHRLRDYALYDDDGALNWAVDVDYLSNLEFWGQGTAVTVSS VL: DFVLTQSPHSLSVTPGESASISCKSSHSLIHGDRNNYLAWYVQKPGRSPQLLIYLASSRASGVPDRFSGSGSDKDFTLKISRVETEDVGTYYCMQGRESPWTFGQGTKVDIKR")
"1.39 µg/mL"
>>> experimental_value("MS-91 (antibody, V domains shown) VH: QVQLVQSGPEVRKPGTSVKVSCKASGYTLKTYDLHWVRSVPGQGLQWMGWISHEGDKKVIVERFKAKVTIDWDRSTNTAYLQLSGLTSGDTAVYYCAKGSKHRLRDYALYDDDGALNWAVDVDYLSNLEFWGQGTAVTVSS VL: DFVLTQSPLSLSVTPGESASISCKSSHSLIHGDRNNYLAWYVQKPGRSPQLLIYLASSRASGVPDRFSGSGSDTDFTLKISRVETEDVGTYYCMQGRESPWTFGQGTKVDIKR")
"10.6 µg/mL"
>>> experimental_value("MS-88 (antibody, V domains shown) VH: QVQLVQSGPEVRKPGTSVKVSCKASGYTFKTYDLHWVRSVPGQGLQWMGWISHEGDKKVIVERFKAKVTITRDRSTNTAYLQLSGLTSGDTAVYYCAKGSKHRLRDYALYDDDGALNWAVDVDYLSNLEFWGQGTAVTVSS VL: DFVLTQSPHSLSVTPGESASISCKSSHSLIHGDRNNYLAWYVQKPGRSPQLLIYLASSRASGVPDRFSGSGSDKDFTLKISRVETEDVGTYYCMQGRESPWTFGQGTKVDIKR")
"> 25 µg/mL"
>>> experimental_value("MS-79 (antibody, V domains shown) VH: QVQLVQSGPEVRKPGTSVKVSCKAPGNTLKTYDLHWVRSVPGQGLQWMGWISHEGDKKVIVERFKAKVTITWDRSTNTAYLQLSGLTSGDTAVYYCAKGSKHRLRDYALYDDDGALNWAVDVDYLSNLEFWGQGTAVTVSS VL: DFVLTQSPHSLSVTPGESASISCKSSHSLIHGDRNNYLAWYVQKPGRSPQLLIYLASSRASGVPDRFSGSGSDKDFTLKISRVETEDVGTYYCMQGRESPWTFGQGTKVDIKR")
"> 25 µg/mL"
>>> experimental_value("MS-74 (antibody, V domains shown) VH: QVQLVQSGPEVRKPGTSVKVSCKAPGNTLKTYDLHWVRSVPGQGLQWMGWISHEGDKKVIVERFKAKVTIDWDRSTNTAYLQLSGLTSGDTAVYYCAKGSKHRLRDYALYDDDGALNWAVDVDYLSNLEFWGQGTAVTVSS VL: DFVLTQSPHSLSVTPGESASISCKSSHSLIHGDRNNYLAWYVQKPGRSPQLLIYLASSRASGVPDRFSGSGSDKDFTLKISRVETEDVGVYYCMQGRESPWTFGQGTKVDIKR")
"1.46 µg/mL"

Where do the numbers come from? From patent US20220025021A1.
